Biological target: recombinant human arginase 1 (Homo sapiens, UniProt P05089)
Sequence (P05089 1-322): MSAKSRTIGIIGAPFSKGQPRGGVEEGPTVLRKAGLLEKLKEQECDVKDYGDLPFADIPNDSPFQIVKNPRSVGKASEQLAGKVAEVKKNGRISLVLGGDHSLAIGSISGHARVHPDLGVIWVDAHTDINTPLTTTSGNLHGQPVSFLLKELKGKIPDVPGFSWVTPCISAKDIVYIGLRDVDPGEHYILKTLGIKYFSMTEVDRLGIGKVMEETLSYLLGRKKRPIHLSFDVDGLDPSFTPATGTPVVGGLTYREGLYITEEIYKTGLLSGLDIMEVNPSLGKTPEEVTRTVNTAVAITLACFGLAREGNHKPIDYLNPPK
Assay: Human arginase activity assay (urea measurement), arginase 1
Conditions: recombinant human arginase 1, pH 7.4, 37° C., 60 min; * = value for the most potent diastereoisomer or the mixture of diastereoisomers; read-out: Activity Class (ARG I)
pIC50: −log10 of the molar value. Counter-ions that a name gives are not always drawn.
PARAMETER: pIC50

// solved cases for pIC50 follow
N[C@]1(C(=O)O)C[C@H](CCB(O)O)CC[C@H]1CN1CCCC1 [Example 23, dihydrochloride]; 7.00 to 9.00
CN(C)C[C@@H]1CC[C@@H](CCB(O)O)C[C@]1(N)C(=O)O (racemic) [Example 17, dihydrochloride]; 7.00 to 9.00

Could you tell me which pIC50 is on file for N[C@]1(C(=O)O)C[C@H](CCB(O)O)CC[C@H]1O (racemic) [Example 13, hydrochloride] ? 6.00 to 7.00

// query pIC50 value for entry COc1ccc(N(C)C[C@@H]2CC[C@@H](CCB(O)O)C[C@]2(N)C(=O)O)cc1 (racemic) [Example 37, dihydrochloride] 5.00 to 6.00

Item N[C@]1(C(=O)O)CCC[C@@H](CCB(O)O)C1 (racemic) [Example 11, hydrochloride] has what recorded pIC50? 4.00 to 5.00

Recorded pIC50 of CNC1(C(=O)O)C[C@H](CCB(O)O)CCC1CN (single isomer, unassigned) [Example 68, dihydrochloride] , please. 4.00 to 5.00

I would be grateful if you could share the reported pIC50 for NC1(C(=O)O)CNC(CCB(O)O)C1 (stereo not drawn) [Example 9, dihydrochloride] . < 4.00

Return reported pIC50; argument: CC1(C)CCN(C[C@@H]2CC[C@@H](CCB(O)O)C[C@]2(N)C(=O)O)CC1 (racemic) [Example 26, dihydrochloride] 6.00 to 7.00

Give its pIC50 value. Item: CC(C)N(C)C[C@@H]1CC[C@@H](CCB(O)O)C[C@]1(N)C(=O)O (racemic) [Example 32] 6.00 to 7.00

I'd like to know its pIC50. The compound in question is CN(C[C@@H]1CC[C@@H](CCB(O)O)C[C@]1(N)C(=O)O)c1ccccc1 (racemic) [Example 40, dihydrochloride] 5.00 to 6.00

Requested read-out: pIC50. Entry: N[C@@]1(C(=O)O)C[C@H](CCB(O)O)CC[C@@H]1O (racemic) [Example 15, hydrochloride] < 4.00

Look at this compound and give its reported pIC50. NC(CCCCB(O)O)(CCNCCCc1ccc(Cl)cc1Cl)C(=O)O (stereo not drawn) [Comparative example 2, reference compound] 7.00 to 9.00

###

target: intracellular arginase in macrophages isolated from murine bone marrow (BMDM) (Mus musculus); construct: endogenous in cells; experiment: Cell-based assay: intracellular arginase in bone marrow derived macrophages (BMDM), urea level; conditions: murine BMDM with M-CSF and IL-4, urea measured 24 hours after compound; * = most potent diastereoisomer or mixture of diastereoisomers; read-out: Activity Class (BMDM)
Sequence (Q61176 whole entry): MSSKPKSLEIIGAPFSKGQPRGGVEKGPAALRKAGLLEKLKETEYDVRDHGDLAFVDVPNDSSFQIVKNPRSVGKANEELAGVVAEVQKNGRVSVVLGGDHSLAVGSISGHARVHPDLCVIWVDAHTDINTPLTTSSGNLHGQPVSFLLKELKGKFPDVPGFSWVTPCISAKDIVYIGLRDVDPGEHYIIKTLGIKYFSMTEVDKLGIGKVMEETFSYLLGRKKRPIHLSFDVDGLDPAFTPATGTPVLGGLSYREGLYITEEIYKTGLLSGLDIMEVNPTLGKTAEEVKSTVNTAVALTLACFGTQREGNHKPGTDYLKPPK
pIC50: −log10 of the molar value. Structures can show the parent of a compound that is named as a salt.
# reported pIC50; entries follow

NCC1CCC(CCB(O)O)CC1(N)C(=O)O (stereo not shown); 4.00 to 5.00
N[C@]1(C(=O)O)C[C@H](CCB(O)O)CC[C@H]1CN1CCCCC1 [Example 70]; 7.00 to 9.00
NC1(C(=O)O)CC(CCB(O)O)CC=C1Cc1ccc(Cl)cc1 (stereo not shown) [Example 53, hydrochloride]; 5.00 to 6.00
CNC[C@@H]1CC[C@@H](CCB(O)O)C[C@]1(N)C(=O)O [Example 39, dihydrochloride]; 6.00 to 7.00
CN(C)C[C@@H]1CC[C@@H](CCB2O[C@H]3C[C@H]4C[C@H](C4(C)C)[C@@]3(C)O2)C[C@]1(N)C(=O)O [Example 44, dihydrochloride]; 7.00 to 9.00
NC1CC(CCB(O)O)CC(N)(C(=O)O)C1 (stereo not shown) [Example 56, dihydrochloride]; < 4.00
CN(C)C[C@H]1CC[C@@H](CCB(O)O)C[C@]1(N)C(=O)O (racemic) [Example 18, dihydrochloride]; 6.00 to 7.00
N[C@]1(C(=O)O)C[C@H](CCB(O)O)CC[C@H]1CN1CCCC1 (racemic) [Example 22, dihydrochloride]; 6.00 to 7.00
N[C@]1(C(=O)O)C[C@H](CCB(O)O)CC[C@H]1CN1CCc2ccccc2C1 (racemic) [Example 35, dihydrochloride]; 4.00 to 5.00
N[C@@]1(C(=O)O)COC[C@@H](CCB(O)O)C1 (racemic) [Example 61, hydrochloride]; 5.00 to 6.00

# input molecule: CCN(CC)C[C@@H]1CC[C@@H](CCB(O)O)C[C@]1(N)C(=O)O (racemic) [Example 30, dihydrochloride] ; wanted: its pIC50 6.00 to 7.00

###

molecular target: recombinant human arginase 2 (Homo sapiens, UniProt P78540); construct: made in house; host or cells: CHO; assay: Human arginase activity assay (urea measurement), arginase 2; type: biochemical; settings: for selected examples class estimated from % of inhibition at 1 μM and 100 μM, * = most potent diastereoisomer or mixture of diastereoisomers, read-out: Activity Class (ARG II)
Sequence (P78540 23-354): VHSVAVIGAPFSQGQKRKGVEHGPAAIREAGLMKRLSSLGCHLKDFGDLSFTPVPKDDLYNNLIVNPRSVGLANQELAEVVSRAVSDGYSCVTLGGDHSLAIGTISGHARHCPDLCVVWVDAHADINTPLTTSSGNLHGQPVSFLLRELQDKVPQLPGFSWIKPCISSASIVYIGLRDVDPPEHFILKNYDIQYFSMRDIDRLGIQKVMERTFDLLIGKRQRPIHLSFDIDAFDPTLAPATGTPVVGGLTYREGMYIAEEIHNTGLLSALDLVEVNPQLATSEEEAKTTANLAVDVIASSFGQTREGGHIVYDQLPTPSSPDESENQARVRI
Counter-ions that a name gives are not always drawn.
PARAMETER: IC50

Check out these entries, answers already filled in.
CNC1(C(=O)O)C[C@H](CCB(O)O)CCC1CN (single isomer, unassigned) [Example 68, dihydrochloride]; 10 to 100 µM
N[C@]1(C(=O)O)C[C@H](CCB(O)O)CC[C@H]1O (racemic) [Example 13, hydrochloride]; 10 to 100 µM
CN(C)CCC1CC[C@@H](CCB(O)O)CC1(N)C(=O)O (single isomer, unassigned) [Example 47, dihydrochloride]; 0.001 to 0.1 µM

Look at this compound and give its reported IC50. CN(C)C[C@@H]1CC[C@@H](CCB(O)O)C[C@@]1(N)C(=O)O (racemic) [Example 19, dihydrochloride] 1 to 10 µM

Report IC50 for N[C@@]1(C(=O)O)CCC[C@@H](CCB(O)O)C1 (racemic) [Example 10, hydrochloride] please. 1 to 10 µM

###

target: recombinant human arginase 1 (Homo sapiens); assay: Human arginase activity assay (urea measurement), arginase 1; conditions: recombinant human arginase 1, pH 7.4, 37° C., 60 min; * = value for the most potent diastereoisomer or the mixture of diastereoisomers; read-out: Activity Class (ARG I)
pIC50: −log10 of the molar value. Counter-ions that a name gives are not always drawn.
PARAMETER: pIC50

Field: example entries. Status: answers known.
NC[C@H]1C[C@@](N)(C(=O)O)C[C@@H]1CCB(O)O (racemic) [Example 7, dihydrochloride]; 5.00 to 6.00
N[C@]1(C(=O)O)C[C@H](CCB(O)O)CC[C@H]1CN1CCc2ccccc2C1 (racemic) [Example 35, dihydrochloride]; 6.00 to 7.00

Provide the documented pIC50 with recombinant human arginase 1 (Homo sapiens) as the system for CC([C@@H]1CC[C@@H](CCB(O)O)C[C@]1(N)C(=O)O)N(C)C (stereo partly shown) [Example 42, dihydrochloride] 4.00 to 5.00

So what pIC50 did NCC1CC(CCB(O)O)CC1(N)C(=O)O (stereo not shown) [Example 66, dihydrochloride] get with recombinant human arginase 1 (Homo sapiens)? 6.00 to 7.00

Any idea what pIC50 came out for CNC[C@@H]1CC[C@@H](CCB(O)O)C[C@]1(N)C(=O)O [Example 39, dihydrochloride] on recombinant human arginase 1 (Homo sapiens)? 7.00 to 9.00

API: value(readout=pIC50, system=recombinant human arginase 1 (Homo sapiens)) for record NC1(C(=O)O)C[C@H](CCB(O)O)CC[C@@H]1O (mixture of isomers) [Example 16, hydrochloride] 4.00 to 5.00

###

Biological target: recombinant human arginase 1 (Homo sapiens)
Sequence (P05089 1-322): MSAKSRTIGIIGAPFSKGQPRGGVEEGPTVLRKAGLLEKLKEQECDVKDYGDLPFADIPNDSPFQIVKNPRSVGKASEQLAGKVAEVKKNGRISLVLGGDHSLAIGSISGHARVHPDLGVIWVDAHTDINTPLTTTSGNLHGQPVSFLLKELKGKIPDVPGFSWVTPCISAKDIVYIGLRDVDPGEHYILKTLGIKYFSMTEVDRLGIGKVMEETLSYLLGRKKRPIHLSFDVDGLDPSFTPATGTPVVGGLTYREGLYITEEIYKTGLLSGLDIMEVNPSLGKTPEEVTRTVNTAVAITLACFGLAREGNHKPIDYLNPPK
Test: Human arginase activity assay (urea measurement), arginase 1
Conditions: recombinant human arginase 1, pH 7.4, 37° C., 60 min; * = value for the most potent diastereoisomer or the mixture of diastereoisomers; read-out: Activity Class (ARG I)
Procedure: Human Arginase Activity Assay The assay was run in the 96-well plate format, each reaction in the total volume of 100 uL. The assay is based on urea measurement, which is a product of L-arginine enzymatic degradation. […] The absorbance for each well was measured at 530 nm. For positive control, only the enzyme and substrate were used, the negative controls contained substrate solution with assay buffer. […] Absorbance was measured (λ=530 nm) 20 minutes later, after color development. […]
Counter-ions that a name gives are not always drawn.
PARAMETER: IC50

Take a look at these entries with their results.
CC1(CCB(O)O)CCC(N)(C(=O)O)C1 (racemic); > 100 µM
N[C@@]1(C(=O)O)C[C@H](CCB(O)O)[C@@H](O)C1 (racemic) [Example 4, hydrochloride]; 10 to 100 µM
NC1CC(CCB(O)O)CC(N)(C(=O)O)C1 (stereo not shown) [Example 56, dihydrochloride]; 1 to 10 µM
N[C@]1(C(=O)O)C[C@H](CCB(O)O)[C@@H](O)C1 (racemic) [Example 5, hydrochloride]; > 100 µM
CN(C)CCC1CC[C@@H](CCB(O)O)CC1(N)C(=O)O (single isomer, unassigned) [Example 47, dihydrochloride]; 0.1 to 1 µM

// IC50 lookup, key: NC1CC(CCB(O)O)CC1(N)C(=O)O (stereo not shown) [Example 62, dihydrochloride] 1 to 10 µM

// lookup IC50 for N[C@]1(C(=O)O)C[C@H](CCB(O)O)CC[C@H]1CN1CCCC1 [Example 71] 0.001 to 0.1 µM

Entry under review: N[C@]1(C(=O)O)C[C@H](CCB(O)O)CC[C@H]1CN1C2CCC1CC2 (racemic) [Example 34, dihydrochloride] . Reported IC50? 0.001 to 0.1 µM

Record request: IC50 value, item CN(C)C[C@@H]1CC[C@@H](CCB2O[C@H]3C[C@H]4C[C@H](C4(C)C)[C@@]3(C)O2)C[C@]1(N)C(=O)O [Example 44, dihydrochloride] 0.001 to 0.1 µM

Given the compound N[C@]1(C(=O)O)C[C@H](CCB(O)O)CC[C@H]1CN1CCCCC1 (racemic) [Example 31, dihydrochloride] , what is its reported IC50? 0.001 to 0.1 µM
